Molecular target: recombinant human MNL phosphodiesterase type IV B (Homo sapiens)
Sequence (Q07343 whole entry): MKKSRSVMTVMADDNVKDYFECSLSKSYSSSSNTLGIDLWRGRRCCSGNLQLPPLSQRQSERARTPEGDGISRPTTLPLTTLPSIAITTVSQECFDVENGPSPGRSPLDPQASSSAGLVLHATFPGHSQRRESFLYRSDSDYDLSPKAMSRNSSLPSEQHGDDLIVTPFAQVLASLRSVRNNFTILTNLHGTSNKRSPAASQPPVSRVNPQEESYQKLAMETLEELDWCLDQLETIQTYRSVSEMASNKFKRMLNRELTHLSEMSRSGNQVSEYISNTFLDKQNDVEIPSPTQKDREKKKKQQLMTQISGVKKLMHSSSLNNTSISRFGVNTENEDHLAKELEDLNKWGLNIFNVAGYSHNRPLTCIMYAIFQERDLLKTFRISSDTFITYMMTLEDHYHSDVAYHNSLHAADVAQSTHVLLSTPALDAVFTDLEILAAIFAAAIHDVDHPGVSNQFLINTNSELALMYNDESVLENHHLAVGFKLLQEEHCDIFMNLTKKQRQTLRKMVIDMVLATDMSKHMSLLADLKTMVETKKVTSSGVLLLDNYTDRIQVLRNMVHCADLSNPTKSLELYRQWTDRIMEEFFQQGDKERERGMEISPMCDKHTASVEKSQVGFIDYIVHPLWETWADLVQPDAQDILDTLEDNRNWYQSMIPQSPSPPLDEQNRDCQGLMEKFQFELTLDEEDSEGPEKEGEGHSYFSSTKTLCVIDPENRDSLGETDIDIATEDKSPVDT
Test: Inhibition of recombinant human mononuclear lymphocyte (MNL) phosphodiesterase type IV B produced in insect cells with a baculovirus vector
Settings: recombinant human MNL PDE IV B; 0.8 μM 3H-cAMP, pH 8, 37° C.; calculated graphically
Method: Inhibition of recombinant human mononuclear lymphoctye (MNL) phosphodiesterase type IV B produced in insect cells with a baculovirus vector The alleviating and/or curing effect of the instant compounds on allergic and atopic diseases was assessed by an in vitro assay system to detect an inhibiting effect on the recombinant human MNL phosphodiesterase type IV B. Seventy-two hours after infection with recombinant baculovirus, the insect cells were harvested and pelleted at 500 g for 5 minutes. […]
Please use Satisfied for IC50 under 200 nM and Not satisfied for everything else, ties included.

>>> answer_label("COc1ccc(C(C)Cn2cc[nH]c2=O)cc1OC1CCCC1 (racemic) [Compound 1]")
"Satisfied"
>>> answer_label("COc1ccc(C(C)Cn2cc[nH]c2=O)cc1OC1CCOC1 (stereo not drawn)")
"Not satisfied"
>>> answer_label("COc1ccc(C(C)Cn2cc[nH]c2=O)cc1OC1CCCC1 (stereo not drawn) [Compound 7]")
"Satisfied"
>>> answer_label("COc1ccc(C(C)(O)Cn2cc[nH]c2=O)cc1OC1CCCC1 (racemic)")
"Not satisfied"
>>> answer_label("COc1ccc(C(C)CN2CCNC2=O)cc1OC (stereo not drawn)")
"Not satisfied"
>>> answer_label("CCOc1ccc(CCn2cc[nH]c2=O)cc1OCC")
"Not satisfied"
>>> answer_label("COc1ccc(C(C)Cn2cc[nH]c2=O)cc1OCC1CC1 (stereo not drawn) [Compound 22]")
"Satisfied"
>>> answer_label("COc1ccc(C(O)(Cn2cc[nH]c2=O)c2ccccc2)cc1OC1CCCC1 (racemic)")
"Not satisfied"
>>> answer_label("COc1ccc(C(C)Cn2cc[nH]c2=O)cc1OCC1CCCC1 (stereo not drawn)")
"Satisfied"
>>> answer_label("CC(Cn1cc[nH]c1=O)c1ccc(OC(F)F)c(OC(F)F)c1 (stereo not drawn)")
"Satisfied"
>>> answer_label("CC(Cn1cc[nH]c1=O)c1ccc(OC(F)F)c(OCc2ccccc2)c1 (stereo not drawn)")
"Satisfied"
>>> answer_label("CC(Cn1ccnc1O)c1ccc(OC(F)F)c(OC2CCCC2)c1 (stereo not drawn)")
"Satisfied"
>>> answer_label("COc1ccc(CCn2cc[nH]c2=O)cc1OC")
"Not satisfied"
>>> answer_label("COc1ccc(C(C)Cn2c(C)c[nH]c2=O)cc1OC (stereo not drawn)")
"Not satisfied"
>>> answer_label("COc1ccc(C(C)Cn2cc[nH]c2=O)cc1OCC1CC1 (racemic) [Compound 10]")
"Satisfied"
>>> answer_label("COc1ccc(CCn2cc[nH]c2=O)cc1OC1CCOC1 (stereo not drawn)")
"Satisfied"
>>> answer_label("COc1ccc(CCN2CCNC2=O)cc1OC")
"Not satisfied"
>>> answer_label("COc1ccc(C(C)Cn2cc[nH]c2=O)cc1OC1CCCC1 (stereo not drawn) [Compound 6]")
"Satisfied"
>>> answer_label("COc1ccc(C(C)Cn2cc[nH]c2=O)cc1OC (stereo not drawn)")
"Satisfied"
>>> answer_label("COc1ccc(C(Cn2cc[nH]c2=O)OC)cc1OC (stereo not drawn)")
"Not satisfied"
>>> answer_label("COc1ccc(C(C)Cn2cc[nH]c2=O)cc1OCC1CCCO1 (stereo not drawn)")
"Not satisfied"

Ref: patent US6403805B1
